// reported gMFI of CD4+ for each item listed
biological target: T1, human CD4 (human, UniProt P01730 26-458); assay: FACS, clonal hybridoma supernatant on human PBMCs
T1 construct: whole, on cells; also called hCD4
Note to self: number, then unit, no commentary.

Example binders with recorded gMFI of CD4+:
1) 75110_02N15A (antibody, V domains shown, Tested as clonal hybridoma supernatant (AlivaMab Mouse Kappa; anti-mouse Fc detection); also called Sib2.3) VH: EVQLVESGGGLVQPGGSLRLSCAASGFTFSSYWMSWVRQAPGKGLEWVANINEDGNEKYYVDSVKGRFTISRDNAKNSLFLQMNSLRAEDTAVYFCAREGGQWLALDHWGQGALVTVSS VL: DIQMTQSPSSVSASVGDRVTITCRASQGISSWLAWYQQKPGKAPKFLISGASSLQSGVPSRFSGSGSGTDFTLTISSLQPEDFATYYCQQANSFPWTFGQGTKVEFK: 253000 gMFI
2) 75110_01J17A (antibody, V domains shown, Tested as clonal hybridoma supernatant (AlivaMab Mouse Kappa; anti-mouse Fc detection); also called Sib1.12) VH: EVQLVESGGGLVQPGGSLRLSCAASGFTFSSYDMHWVRQGTGKGLEWVSTIGTADDTYYPGSVKGRFTISRENAENSLYLQMNSLRAGDTAVYYCARGGDYYYGMDVWGQGTTVTVSS VL: EIVLAQSPGTLSLSPGERATLSCRASQSVYISYLAWYQQKPGQAPRLLIYGASSRATGIPDRFSGSGSGTDFTLTITRLEPEDFAVYYCQQFGSSPFTFGPGTKVDFK: 167000 gMFI
3) 75110_01H18A (antibody, V domains shown, Tested as clonal hybridoma supernatant (AlivaMab Mouse Kappa; anti-mouse Fc detection); also called Sib6.1) VH: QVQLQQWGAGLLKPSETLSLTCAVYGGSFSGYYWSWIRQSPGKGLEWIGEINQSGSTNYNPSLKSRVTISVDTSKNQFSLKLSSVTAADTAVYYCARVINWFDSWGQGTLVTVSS VL: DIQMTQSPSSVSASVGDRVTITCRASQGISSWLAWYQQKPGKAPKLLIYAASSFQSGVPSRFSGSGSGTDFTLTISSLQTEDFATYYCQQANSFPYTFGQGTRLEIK: 101000 gMFI
4) 75110_01K10A (antibody, V domains shown, Tested as clonal hybridoma supernatant (AlivaMab Mouse Kappa; anti-mouse Fc detection); also called Sib1.3) VH: EVQLVESGGALVQPGGSLRLSCAASGFTFRNYDMHWVRQATGKGLEWVSTIGTAGDTYYPGSVKGRFTISRENAKNSLYLQMNSLRAGDTAVYYCARGGDYYYGMDVWGQGTTVTVSS VL: EIVLTQSPDTLSLSPGERATLSCRASQSLSSVYLAWYQQKPGQAPRLLIYGASSRATGIPDRFSGTGSGTDFTLTISRLEPEDFAVYYCQQYGSSPFTFGPGTKVDIK: 191000 gMFI

// below: gMFI of CD4+ requested for another binder
Exercise: Fill in the blank: the reported gMFI of CD4+ of 75110_01D24A (antibody, V domains shown, Tested as clonal hybridoma supernatant (AlivaMab Mouse Kappa; anti-mouse Fc detection)) VH: QVQLQQWGAGLLKPSETLSLTCAVYGGSFSGYYWSWIRQPPGKGLEWIGEINHSGSTNYNPSLKSRVTISVDTSENQFSLKLNSVTAADTAVYYCARLVNWFDPWGQGTLVTVSS VL: EIQMTQSPSSVSASVGDRVTITCRASQDISNWLAWYQQKPGKAPNLLIFAASSLQTGVPSRFSGSGSGTDFTLTISSLQPDDFATYYCQQANSFPYSFGQGTNLGIK is ____.
Solution: 134000 gMFI
